- Tested on: A498 renal
- ASSAY DETAILS: NCI-60 one-dose screen, 48 h (100 = growth as untreated, 0 = no growth, -100 = all killed)
- COND: 10 µM unless noted
Compounds without any hit were thinned out: in the full panel of roughly 83,000, 20% have a hit.
OBSERVED PROPERTY: growth (%)
Give the number; % is assumed, so skip it.

Reference set, count: 6
[
  {
    "COMPOUND": "C[Si](C)(C)Cc1ccccc1",
    "TGT": "A498 renal",
    "growth / %": 164
  },
  {
    "COMPOUND": "Clc1ccccc1-c1nc(Nc2nc3ccccc3s2)nc(C(Cl)(Cl)Cl)n1",
    "TGT": "A498 renal",
    "growth / %": 58.3
  },
  {
    "COMPOUND": "O=c1[nH]c2c3ccncc3cc(-c3cccc(Cl)c3)c2c2cnccc12",
    "TGT": "A498 renal",
    "growth / %": 50.2
  },
  {
    "COMPOUND": "Oc1ccc(CCC2CCCC(CCc3ccc(OCCF)cc3)N2)cc1 (stereo unspecified)",
    "TGT": "A498 renal",
    "growth / %": 96.9
  },
  {
    "COMPOUND": "Cc1cc(N(CCCNc2ccnc3cc(Cl)ccc23)Cc2ccco2)nc(Cl)n1",
    "TGT": "A498 renal",
    "growth / %": 46.1
  },
  {
    "COMPOUND": "COc1cc(-c2c(C#N)c(-c3cccs3)nc3c2c(-c2ccccc2)nn3-c2ccccc2)ccc1O",
    "TGT": "A498 renal",
    "growth / %": 106
  }
]

Ask | Write down the reported growth of Cc1cc(N(CCCNc2ccnc3cc(Cl)ccc23)Cc2ccco2)nc(N2CCN(C)CC2)n1 , test system: A498 renal.
Reply | 72.2

Ask | Write down the reported growth of C[C@H]1OC(=O)/C=C/[C@@H](O)[C@@H](O)CCCCCCCC[C@@H]1O , test system: A498 renal.
Reply | 71.1

Ask | Write down the reported growth of Nc1c(C(=O)Nc2c(Cl)cccc2Cl)sc2nc3c(cc12)C(=O)CCC3 , test system: A498 renal.
Reply | 2.03

Ask | Write down the reported growth of COc1ccc2c(c1)C(Br)=C(CCO)C2c1ccccc1 (stereo unspecified) , test system: A498 renal.
Reply | 35.6

Ask | Write down the reported growth of Nc1c2c(nc3ccc(Cl)cc13)CC(c1ccc(O)cc1)CC2=O (stereo unspecified) , test system: A498 renal.
Reply | 86.5

Reference source: PubChem BioAssay (NCI)
